Target: Integrin alpha-V/beta-3 (Homo sapiens, UniProt P05106+P06756)
Sequence (P05106 27-788 limits assumed): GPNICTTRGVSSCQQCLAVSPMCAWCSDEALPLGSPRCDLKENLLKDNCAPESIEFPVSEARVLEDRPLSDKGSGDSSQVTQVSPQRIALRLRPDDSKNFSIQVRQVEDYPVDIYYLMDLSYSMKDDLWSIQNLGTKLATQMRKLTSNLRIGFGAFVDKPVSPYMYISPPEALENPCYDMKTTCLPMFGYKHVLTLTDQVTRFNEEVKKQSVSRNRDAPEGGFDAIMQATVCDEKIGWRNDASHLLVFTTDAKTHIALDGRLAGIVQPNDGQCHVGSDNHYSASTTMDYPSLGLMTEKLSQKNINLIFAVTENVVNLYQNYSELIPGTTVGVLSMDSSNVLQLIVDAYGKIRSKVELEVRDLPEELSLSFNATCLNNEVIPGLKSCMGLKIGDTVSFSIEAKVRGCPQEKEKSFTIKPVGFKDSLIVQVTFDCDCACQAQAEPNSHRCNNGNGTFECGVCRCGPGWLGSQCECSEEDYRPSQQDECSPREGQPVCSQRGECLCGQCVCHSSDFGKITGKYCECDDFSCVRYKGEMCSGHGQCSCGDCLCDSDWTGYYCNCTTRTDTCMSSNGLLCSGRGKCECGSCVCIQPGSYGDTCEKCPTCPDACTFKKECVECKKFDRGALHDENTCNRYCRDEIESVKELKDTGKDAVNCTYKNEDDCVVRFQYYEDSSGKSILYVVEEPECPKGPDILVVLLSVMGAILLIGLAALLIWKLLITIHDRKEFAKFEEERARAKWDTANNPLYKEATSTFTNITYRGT
Sequence (P06756 31-889 limits assumed): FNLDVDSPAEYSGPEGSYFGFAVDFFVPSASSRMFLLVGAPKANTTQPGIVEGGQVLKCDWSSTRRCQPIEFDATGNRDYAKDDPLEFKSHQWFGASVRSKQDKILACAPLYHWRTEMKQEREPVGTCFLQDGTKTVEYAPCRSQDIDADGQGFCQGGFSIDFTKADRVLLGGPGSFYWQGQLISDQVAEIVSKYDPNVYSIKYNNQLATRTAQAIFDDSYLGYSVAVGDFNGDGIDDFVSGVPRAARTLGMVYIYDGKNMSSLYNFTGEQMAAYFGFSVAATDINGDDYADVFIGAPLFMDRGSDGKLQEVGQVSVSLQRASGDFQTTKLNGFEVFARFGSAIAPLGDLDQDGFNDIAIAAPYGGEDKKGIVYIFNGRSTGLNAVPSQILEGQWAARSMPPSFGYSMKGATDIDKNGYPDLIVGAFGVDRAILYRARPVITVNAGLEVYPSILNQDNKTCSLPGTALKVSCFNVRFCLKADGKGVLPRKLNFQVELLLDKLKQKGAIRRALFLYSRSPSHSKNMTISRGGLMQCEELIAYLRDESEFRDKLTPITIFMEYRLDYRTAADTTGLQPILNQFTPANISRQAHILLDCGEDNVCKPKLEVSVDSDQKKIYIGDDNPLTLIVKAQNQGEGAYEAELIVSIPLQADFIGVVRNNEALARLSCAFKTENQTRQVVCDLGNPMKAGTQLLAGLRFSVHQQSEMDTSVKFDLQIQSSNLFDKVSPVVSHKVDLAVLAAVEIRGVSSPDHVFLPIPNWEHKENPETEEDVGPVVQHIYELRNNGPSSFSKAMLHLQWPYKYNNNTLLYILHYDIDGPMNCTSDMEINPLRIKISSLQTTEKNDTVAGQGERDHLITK
Sequence (P06756 891-1048 limits assumed): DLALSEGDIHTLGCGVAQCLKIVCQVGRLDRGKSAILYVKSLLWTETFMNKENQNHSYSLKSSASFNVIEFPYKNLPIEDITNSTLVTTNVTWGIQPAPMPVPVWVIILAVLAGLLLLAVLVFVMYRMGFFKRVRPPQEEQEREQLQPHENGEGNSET
Assay: Binding affinity evaluated against vitronectin receptor (alphaV-beta3) receptor
pKi: −log10 of the molar value.
Each entry gets false (0) if its pKi stays under 8, and true (1) if its pKi is 8 or above.

compound=CN(Cc1nc2c([nH]1)CCCC2)C(=O)c1ccc2c(c1)CN(C)C(=O)[C@H](CC(=O)O)N2 class_name="true (1)"
compound="O=C(O)C[C@@H]1Nc2ccc(C(=O)NCc3nc4ccccc4[nH]3)cc2CN(CC(=O)O)C1=O (racemic)" class_name="false (0)"
compound=O=C(O)C[C@@H]1Nc2ccc(C(=O)NCc3nc4ccccc4[nH]3)cc2CNC1=O class_name="false (0)"
compound="CN(Cc1nc2ccc(N)cc2[nH]1)C(=O)c1ccc2c(c1)CN(C)C(=O)[C@H](CC(=O)O)N2 (racemic)" class_name="false (0)"
compound=CN1Cc2cc(C(=O)N(CC#N)Cc3nc4ccccc4[nH]3)ccc2N[C@@H](CC(=O)O)C1=O class_name="true (1)"
compound="CN(Cc1nc2ccccc2o1)C(=O)c1ccc2c(c1)CN(C)C(=O)[C@H](CC(=O)O)N2 (racemic)" class_name="false (0)"
compound=CN(Cc1nc2ccccc2[nH]1)C(=O)c1ccc2c(c1)CN(CCc1ccccc1)C(=O)[C@H](CC(=O)O)N2 class_name="true (1)"
